Just for reference, PubChem BioAssay is where these values come from.

# experiment_summary: E. coli acrAB mutant growth effects, primary screen, E. coli filamentation inducers, strain DRC39, OD650, 24 h (AID 1178);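 note: growth measured as culture turbidity by optical density at 650 nm; test concentration not given here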
# measurement_setup: higher = more signal, called active from +8 up or from −8 down
Please use true whenever z-score is not below 0.2, and false whenever it is.

Example entries begin here.
O=C(NN=C1C[C@@H](O)[C@@H](O)[C@@H]2[C@@H]3C(=O)N(C4CCCCC4)C(=O)[C@@H]3CC[C@H]12)OCc1ccccc1	false
C=CC[C@@H]1C=C[C@H](ON=C(C)CCN2CCc3nc(-c4ccccc4)c(-c4ccccc4)cc3C2)[C@@H](CO)O1	true
C=CC[C@@H]1C=C[C@H](ON=C2[C@H]3CCn4c(=O)n(-c5ccccc5)c(=O)n4[C@H]3[C@H](O)[C@@H]3O[C@H]23)[C@@H](CO)O1	true
C[C@@H]1C=CCC(=O)OC[C@H]2O[C@@H](C=C[C@@H]2O)[C@H](C)C=CCC(=O)OC1	true
C#CCCCON=C1C[C@@H](O)[C@@H](O)[C@@H]2[C@@H]3C(=O)N(c4cccc(Oc5ccccc5)c4)C(=O)[C@@H]3CC[C@H]12	true
CC[C@@H](c1ccccc1)n1c(=O)n2n(c1=O)[C@H]1[C@H](O)[C@@H]3O[C@@H]3C(=O)[C@H]1CC2	true

# check: z-score of O=C(NN=C1C[C@@H](O)[C@@H](O)[C@@H]2[C@@H]3C(=O)N(C4CCCCC4)C(=O)[C@@H]3CC[C@@H]12)OCc1ccccc1 is greater than or equal to 0.2
false

# check: z-score of CCOC(=O)[C@H](Cc1ccccc1)NC(=O)CCC1CC(OC(=O)NCc2ccc3c(c2)OCO3)CC2(CCCC(COC(=O)NCCc3ccccc3OC)O2)O1 (stereo not given in full) is greater than or equal to 0.2
false

# check: z-score of CCC=CCCC(OC(=O)c1ccc(Br)cc1)C1=CCCCC1=O (stereo not given) is greater than or equal to 0.2
false

# check: z-score of CON=C(C)CCC(=O)OC[C@H]1O[C@H](c2ccccc2)C=C[C@@H]1Oc1ccc(OC)cc1 is greater than or equal to 0.2
true

# check: z-score of O=c1n(-c2ccccc2)c(=O)n2n1CC[C@@H]1C(=NOCc3ccccc3)[C@H]3O[C@H]3[C@@H](O)[C@@H]12 is greater than or equal to 0.2
false

# check: z-score of CCOC(=O)[C@H](Cc1ccccc1)NC(=O)CCC1CC(OC(=O)NCCc2ccc(F)cc2)CC2(CCCC(COC(=O)NCc3ccccc3)O2)O1 (stereo not given in full) is greater than or equal to 0.2
true

# check: z-score of CC(=O)OC[C@H]1O[C@@H](ON=C(C)CCN2CCCc3nc(C)c(C)cc32)[C@H](OC(C)=O)[C@@H](OC(C)=O)[C@@H]1OC(C)=O is greater than or equal to 0.2
false

# check: z-score of Cc1cc2c(nc1C)CCCN2CC(O)CN1CCCc2nc(C)c(C)cc21 is greater than or equal to 0.2
false

# check: z-score of CCc1cc2c(nc1CC)CCN(CCC(C)=NOC[C@H]1O[C@H](c3ccccc3)C=C[C@@H]1Oc1ccc(OC)cc1)C2 is greater than or equal to 0.2
false
